target: Prostaglandin F2-alpha receptor (Mus musculus); assay: Agonist activity at FP receptor in Swiss mouse 3T3 cells assessed as [3H]-IP accumulation by scintillation counting
Sequence (P43117 whole entry): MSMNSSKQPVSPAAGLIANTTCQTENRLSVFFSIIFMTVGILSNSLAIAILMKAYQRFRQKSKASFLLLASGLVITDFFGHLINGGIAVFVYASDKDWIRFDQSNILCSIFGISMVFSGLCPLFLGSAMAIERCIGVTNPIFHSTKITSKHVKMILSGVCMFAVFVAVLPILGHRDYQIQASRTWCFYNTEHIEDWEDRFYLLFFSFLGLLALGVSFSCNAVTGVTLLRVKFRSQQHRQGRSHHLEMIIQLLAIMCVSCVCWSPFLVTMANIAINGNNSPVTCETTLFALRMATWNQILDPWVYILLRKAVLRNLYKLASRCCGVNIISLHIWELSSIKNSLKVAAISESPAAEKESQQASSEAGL
Metric name: EC50 (nM)
Return type: number; implicit unit nM.

• O=C(O)CCC/C=C\C[C@@H]1[C@@H](OC[C@H](O)COc2ccccc2)[C@H](O)C[C@@H]1O = 68.6
• O=C(O)CCC/C=C\C[C@@H]1[C@@H](OC[C@@H](O)COc2cccc(Cl)c2)[C@H](O)C[C@@H]1O = 52.4

# ---- query compound ----
Specify reported EC50 for the compound shown: O=C(O)CCC/C=C\C[C@@H]1[C@@H](OC[C@@H](O)COc2ccccc2)[C@H](O)C[C@@H]1O
294

----------
// endpoint pKi / system Prostaglandin F2-alpha receptor (Bos taurus)
Value format note: pKi is -log10 of concentration (mol/L); just state the number.

* O=C(O)CCC/C=C\C[C@@H]1[C@@H](OC[C@H](O)COc2ccccc2)[C@H](O)C[C@@H]1O | 7.06
* O=C(O)CCC/C=C\C[C@@H]1[C@@H](OC[C@H](O)COc2cccc(Cl)c2)[C@H](O)C[C@@H]1O | 6.85

# ---- query compound ----
Fill in: pKi on Prostaglandin F2-alpha receptor (Bos taurus), entry O=C(O)CCC/C=C\C[C@@H]1[C@@H](CC[C@@H](O)CCc2ccccc2)[C@H](O)C[C@@H]1O
Sequence (P37289 whole entry): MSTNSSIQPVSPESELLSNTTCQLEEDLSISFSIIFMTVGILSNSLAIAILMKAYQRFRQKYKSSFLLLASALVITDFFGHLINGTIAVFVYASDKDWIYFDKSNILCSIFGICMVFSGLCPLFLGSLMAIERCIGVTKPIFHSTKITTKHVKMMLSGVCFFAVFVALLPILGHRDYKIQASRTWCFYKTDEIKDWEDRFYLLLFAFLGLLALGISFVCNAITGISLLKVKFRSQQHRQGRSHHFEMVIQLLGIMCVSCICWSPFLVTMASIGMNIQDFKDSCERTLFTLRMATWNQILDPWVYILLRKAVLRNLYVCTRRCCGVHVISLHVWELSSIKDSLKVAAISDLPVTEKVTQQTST
7.01

----------
target: Prostaglandin F2-alpha receptor (Mus musculus); assay: Agonist activity at FP receptor in Swiss mouse 3T3 cells assessed as [3H]-IP accumulation by scintillation counting relative to control; assay type: functional, cell-based
Activity values for the molecules below.
Return type: number; implicit unit %.

• O=C(O)CCC/C=C\C[C@@H]1[C@@H](OC[C@@H](O)COc2ccccc2)[C@H](O)C[C@@H]1O = 67
• O=C(O)CCC/C=C\C[C@@H]1[C@@H](OC[C@@H](O)COc2cccc(Cl)c2)[C@H](O)C[C@@H]1O = 62
• O=C(O)CCC/C=C\C[C@@H]1[C@@H](OC[C@@H](O)CCc2cccc(C(F)(F)F)c2)[C@H](O)C[C@@H]1O = 78
• O=C(O)CCC/C=C\C[C@@H]1[C@@H](OC[C@H](O)CCc2cccc(C(F)(F)F)c2)[C@H](O)C[C@@H]1O = 82
• O=C(O)CCC/C=C\C[C@@H]1[C@@H](CC[C@@H](O)CCc2ccccc2)[C@H](O)C[C@@H]1O = 85

Specify reported Activity for the molecule shown: O=C(O)CCC/C=C\C[C@@H]1[C@@H](OC[C@H](O)COc2ccccc2)[C@H](O)C[C@@H]1O
67

Specify reported Activity for the molecule shown: O=C(O)CCC/C=C\C[C@@H]1[C@@H](OC[C@H](O)COc2cccc(Cl)c2)[C@H](O)C[C@@H]1O
86

----------
target: Prostaglandin F2-alpha receptor (Mus musculus); test: Agonist activity at FP receptor in Swiss mouse 3T3 cells assessed as [3H]-IP accumulation by scintillation counting
pEC50 values for the compounds below.
Value format note: pEC50 is -log10 of concentration (mol/L); just state the number.

Look over these answered cases.
* O=C(O)CCC/C=C\C[C@@H]1[C@@H](OC[C@H](O)CCc2cccc(C(F)(F)F)c2)[C@H](O)C[C@@H]1O | 8.24
* O=C(O)CCC/C=C\C[C@@H]1[C@@H](OC[C@@H](O)CCc2cccc(C(F)(F)F)c2)[C@H](O)C[C@@H]1O | 8.72

Fill in: pEC50 on Prostaglandin F2-alpha receptor (Mus musculus), entry O=C(O)CCC/C=C\C[C@@H]1[C@@H](OC[C@H](O)COc2cccc(Cl)c2)[C@H](O)C[C@@H]1O
7.21

Fill in: pEC50 on Prostaglandin F2-alpha receptor (Mus musculus), entry O=C(O)CCC/C=C\C[C@@H]1[C@@H](CC[C@@H](O)CCc2ccccc2)[C@H](O)C[C@@H]1O
7.50
